# Organism: Rattus norvegicus
# ASSAY_INFO: Metabolic stability in rat liver microsomes assessed as compound remaining after 10 mins
Below, each entry is listed alongside its reported remaining at 10 min.
RESULT_TYPE: remaining at 10 min

INSERT INTO assay_data (cpd_smiles, reported_measurement) VALUES
  ('Cc1cc(Nc2nc(Cl)cn([C@H](C)C3CC3)c2=O)c(C)nc1OC(F)F', '86%'),
  ('COc1ccc(Nc2nc(Cl)cn([C@H](C)C3CC3)c2=O)c(OC)n1', '25%'),
  ('COc1cc(C)c(Nc2nc(Cl)cn([C@H](C)C3CC3)c2=O)c(C)n1', '81%');

====

# ASSAY_INFO: Dissociation constant, pKa at pH 2 to 11 by spectrophotometric titration method
# Assay type: physicochemical
Below, each entry is listed with its recorded pKa.
RESULT_TYPE: pKa

INSERT INTO results (cpd_smiles, reported_measurement) VALUES
  ('COc1nc(C)c(Nc2nc(Cl)cn([C@H](C)C3CC3)c2=O)cc1C', 3.6),
  ('COc1cc(C)c(Nc2nc(Cl)cn([C@H](C)C3CC3)c2=O)c(C)n1', 3.8),
  ('Cc1cc(OC(F)F)nc(C)c1Nc1nc(Cl)cn([C@H](C)C2CC2)c1=O', '< 2'),
  ('Cc1nc(OC(F)F)ccc1Nc1nc(Cl)cn([C@H](C)C2CC2)c1=O', '< 2'),
  ('Cc1cc(Nc2nc(Cl)cn([C@H](C)C3CC3)c2=O)c(C)nc1OC(F)F', '< 2'),
  ('COc1ccc(Nc2nc(Cl)cn([C@H](C)C3CC3)c2=O)c(C(F)(F)F)n1', '< 2'),
  ('Cc1cc(C)c(Nc2nc(Cl)cn([C@H](C)C3CC3)c2=O)c(C)n1', 7.9),
  ('COc1ccc(Nc2nc(Cl)cn([C@H](C)C3CC3)c2=O)c(C)n1', 3.2);

====

# Organism: Homo sapiens
# ASSAY_INFO: Metabolic stability in human liver microsomes assessed as compound remaining after 10 mins
Labelling: remaining at 10 min reported below 90% becomes Met; at or above becomes Not met.

INSERT INTO assay_data (cpd_smiles, label_class) VALUES
  ('CCOc1nc(C)c(Nc2nc(Cl)cn([C@H](C)C3CC3)c2=O)cc1C', 'Not met'),
  ('Cc1cc(Nc2nc(Cl)cn([C@H](C)C3CC3)c2=O)c(C)nc1N(C)C', 'Met'),
  ('COC[C@@H](C1CC1)n1cc(Cl)nc(Nc2c(C)nc(OC)nc2OC)c1=O', 'Met'),
  ('Cc1cc(Nc2nc(Cl)cn([C@H](C)C3CC3)c2=O)c(C)nc1OC(F)F', 'Not met'),
  ('COc1nc(C)c(Nc2nc(Cl)cn([C@H](C)C3CC3)c2=O)c(OC)n1', 'Met'),
  ('COc1ccc(Nc2nc(Cl)cn([C@H](C)C3CC3)c2=O)c(OC)n1', 'Met'),
  ('Cc1cc(Nc2nc(Cl)cn([C@H](C)C3CC3)c2=O)c(C)nc1N1CCCC1', 'Met'),
  ('COc1nc(C)c(Nc2nc(Cl)cn([C@H](C)C3CC3)c2=O)cc1C', 'Met'),
  ('COc1cc(C)c(Nc2nc(Cl)cn([C@H](C)C3CC3)c2=O)c(C)n1', 'Met'),
  ('COC[C@H](C1CC1)n1cc(Cl)nc(Nc2c(C)nc(OC)nc2OC)c1=O', 'Met'),
  ('Cc1cc(C)c(Nc2nc(Cl)cn([C@H](C)C3CC3)c2=O)c(C)n1', 'Met');

====

# Species on record: Rattus norvegicus
# ASSAY_INFO: Metabolic stability in rat liver microsomes assessed as compound remaining after 10 mins
RESULT_TYPE: remaining at 10 min (%)

INSERT INTO measurements (cpd_smiles, reported_measurement) VALUES
  ('COc1nc(C)c(Nc2nc(Cl)cn([C@H](C)C3CC3)c2=O)cc1C', 55),
  ('Cc1cc(C)c(Nc2nc(Cl)cn([C@H](C)C3CC3)c2=O)c(C)n1', 76),
  ('Cc1cc(OC(F)F)nc(C)c1Nc1nc(Cl)cn([C@H](C)C2CC2)c1=O', 84),
  ('COc1nc(C)c(Nc2nc(Cl)cn([C@H](C)C3CC3)c2=O)c(OC)n1', 81),
  ('COC[C@H](C1CC1)n1cc(Cl)nc(Nc2c(C)nc(OC)nc2OC)c1=O', 18),
  ('COc1ccc(Nc2nc(Cl)cn([C@H](C)C3CC3)c2=O)c(C)n1', 60),
  ('Cc1cc(Nc2nc(Cl)cn([C@H](C)C3CC3)c2=O)c(C)nc1N(C)C', 29),
  ('Cc1cc(Nc2nc(Cl)cn([C@H](C)C3CC3)c2=O)c(C)nc1N1CCCC1', 26),
  ('COC[C@@H](C1CC1)n1cc(Cl)nc(Nc2c(C)nc(OC)nc2OC)c1=O', 25),
  ('CCOc1nc(C)c(Nc2nc(Cl)cn([C@H](C)C3CC3)c2=O)cc1C', 81);

====

# ASSAYED_TARGET: Corticotropin-releasing factor receptor 1 (Rattus norvegicus, UniProt P35353)
# Sequence (P35353 whole entry): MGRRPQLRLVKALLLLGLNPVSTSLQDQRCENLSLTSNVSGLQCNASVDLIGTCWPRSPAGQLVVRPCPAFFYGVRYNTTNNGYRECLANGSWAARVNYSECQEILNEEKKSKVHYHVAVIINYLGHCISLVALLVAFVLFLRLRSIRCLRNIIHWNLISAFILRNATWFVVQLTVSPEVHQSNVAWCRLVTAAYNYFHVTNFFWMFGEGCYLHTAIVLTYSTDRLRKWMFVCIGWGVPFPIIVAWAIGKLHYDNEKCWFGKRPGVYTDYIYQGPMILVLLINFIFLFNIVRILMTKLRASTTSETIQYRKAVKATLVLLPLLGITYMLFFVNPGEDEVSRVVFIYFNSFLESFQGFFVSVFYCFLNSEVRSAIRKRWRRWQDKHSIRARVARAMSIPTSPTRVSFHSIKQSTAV
Collected log10(IC50) values appear next to each entry.
RESULT_TYPE: log10(IC50) (log10 of the value in nM)

INSERT INTO results (cpd_smiles, assayed_target, reported_measurement) VALUES
  ('COc1nc(C)nc(C#N)c1Nc1nc(Cl)cn([C@H](C)C2CC2)c1=O', 'Corticotropin-releasing factor receptor 1 (Rattus norvegicus, UniProt P35353)', 2.15),
  ('Cc1cc(Nc2nc(Cl)cn([C@H](C)C3CC3)c2=O)c(C)nc1N1CCCC1', 'Corticotropin-releasing factor receptor 1 (Rattus norvegicus, UniProt P35353)', 0.83),
  ('Cc1cc(Nc2nc(Cl)cn([C@H](C)C3CC3)c2=O)c(C)nc1N(C)C', 'Corticotropin-releasing factor receptor 1 (Rattus norvegicus, UniProt P35353)', -0.17),
  ('COc1nc(C)c(Nc2nc(Cl)cn([C@H](C)C3CC3)c2=O)c(OC)n1', 'Corticotropin-releasing factor receptor 1 (Rattus norvegicus, UniProt P35353)', 2.38),
  ('COc1ccc(Nc2nc(Cl)cn([C@H](C)C3CC3)c2=O)c(C)n1', 'Corticotropin-releasing factor receptor 1 (Rattus norvegicus, UniProt P35353)', 1.04),
  ('Cc1cc(OC(F)F)nc(C)c1Nc1nc(Cl)cn([C@H](C)C2CC2)c1=O', 'Corticotropin-releasing factor receptor 1 (Rattus norvegicus, UniProt P35353)', 0.32),
  ('CCOc1nc(C)c(Nc2nc(Cl)cn([C@H](C)C3CC3)c2=O)cc1C', 'Corticotropin-releasing factor receptor 1 (Rattus norvegicus, UniProt P35353)', 0.43),
  ('Cc1nc(C(F)(F)F)ccc1Nc1nc(Cl)cn([C@H](C)C2CC2)c1=O', 'Corticotropin-releasing factor receptor 1 (Rattus norvegicus, UniProt P35353)', 2.86),
  ('COc1nc(C(F)(F)F)c(Nc2nc(Cl)cn([C@H](C)C3CC3)c2=O)cc1C', 'Corticotropin-releasing factor receptor 1 (Rattus norvegicus, UniProt P35353)', 0.08);
